Test system: DeltatarO mutant
testDetails: S. aureus survival, RN4220 and DeltatarO strains – OD600, teichoic acid synthesis inhibitors, primary screen (AID 463173)
condition: S. aureus RN4220 wild type/DeltatarO growth, OD600, 18 h, hits give low values, screened at 18.75 µg/mL (by protocol)
Screen size: about 52,000 compounds; about 4,300 (8.3%) were called active. Only a selection was taken, and actives are over-represented in it overall.
measureName: survival (%)
Numbers only, in %.

Here's what some known entries look like.
Cn1nccc1C(=O)NCc1ccc2c(c1)CCN2C(=O)c1ccc(F)cc1; 65
COc1ccc(-c2oc3ncn4nc(COc5ccccc5C)nc4c3c2-c2ccc(OC)cc2)cc1; 79
CCOc1ccccc1NC(=O)CSc1nnc2[nH]c(=O)cc(-c3ccccc3)n12; 98

For every item below, please supply its survival.
1. CCCc1nn2c(=O)cc(COC(=O)c3cccc(NC(=O)CCc4ccccc4)c3)nc2s1
2. O=C(Nc1ccccc1)C1CCN(S(=O)(=O)c2ccc3c(c2)CCCN3C(=O)C2CCC2)CC1

[131, 95]

###

Tested on: DeltatarO mutant
testDetails: S. aureus survival, RN4220 and DeltatarO strains – OD600, teichoic acid synthesis inhibitors, primary screen (AID 463173)
condition: S. aureus RN4220 wild type/DeltatarO growth, OD600, 18 h, screened at 18.75 µg/mL (by protocol)
The campaign covered roughly 52,000 compounds. About 4,300 (8.3%) were called active. Rule as the data show it: active = survival mostly below about 52% (no sharp cut-off); inactive = mostly above about 56%. Many of the other results were omitted from the sample, so actives are more common in it than they were.
Parameter call: string, one of T for active, F for inactive

Recorded results for 4 compounds are shown here.
Cc1cccc(NC(=O)CN(C)S(=O)(=O)c2cnc[nH]2)c1C; F
Cc1cc(-c2nc3ncccc3o2)ccc1NC(=O)COc1ccc(C(C)(C)C)cc1; T
COc1ccc(NC(=O)c2cc(S(=O)(=O)N3CCOCC3)ccc2OC)cc1; F
Cc1ccc(-n2nc(C)c3c(C(F)(F)F)cc(-c4cccnc4)nc32)cc1C; F

What call does the record list for Cc1ccc(C2=NN(CC(=O)NCCN(CC(C)C)CC(C)C)C(=O)CC2)cc1 ?
F

Further, for O=C(NCc1ccccc1)N1CCc2c(sc3c2CCCC3)C1c1ccccc1 (configuration not stated) ?
F

Further, for CCN(CCCNC(=O)CN1N=C(c2ccc(C)cc2)CCC1=O)c1ccccc1 ?
T

Further, for Cc1ccccc1NC(=O)c1oc2c(c1C)-c1nn(Cc3cccc(Cl)c3)cc1CC2 ?
T

###

System: DeltatarO mutant
testDetails: S. aureus survival, RN4220 and DeltatarO strains – OD600, teichoic acid synthesis inhibitors, primary screen (AID 463173)
condition: S. aureus RN4220 wild type/DeltatarO growth, OD600, 18 h, hits give low values, screened at 18.75 µg/mL (by protocol)
Among all 52,000 compounds or so, about 4,300 (8.3%) were called active. The sample holds actives, similar compounds and a random draw of the others, so the mix is not that of the screen.
measureName: survival (%)
One number for each entry, in %.

Here's what some known entries look like.
CC1CCCN(S(=O)(=O)c2ccc(NC(=O)CSc3nc4ccccc4o3)cc2)C1 (stereo not given); 58
Cc1cc(C)c(NC(=O)Cn2nnc(S(=O)(=O)c3ccc(C)c(C)c3)c2N)c(C)c1; 96
COc1ccc(-c2noc(-c3ccc(N4CCN(c5ccccc5)CC4)c([N+](=O)[O-])c3)n2)cc1; 49
Cc1ccc(S(=O)(=O)c2cn(Cc3ccccc3)c3cc(N4CCCC4)c(F)cc3c2=O)cc1; 71
O=S1(=O)C=C(Sc2nnnn2-c2ccccc2)c2ccccc21; 4
COc1cc(-c2noc(-c3ccc(N4CCOCC4)c([N+](=O)[O-])c3)n2)cc(OC)c1OC; 66
Cc1ccc(Sc2ccc(N3CCC(C(=O)Nc4ccc(Cl)cc4)CC3)nn2)cc1; 72
CCCCNC(=O)c1[nH]c2ccccc2c1Sc1ccc(C)cc1; 75
O=C(CSc1nc(-c2ccc(F)cc2)[nH]c1-c1ccccc1)Nc1ccccc1; 67
CC1CCCCN1CCCNC(=O)c1[nH]c2ccccc2c1Sc1ccc(Cl)cc1 (stereo not given); 1

For every item below, please supply its survival.
1. NS(=O)(=O)c1ccc(CCNc2nc3c(-c4cccc(F)c4)nnn3c3ccc(Cl)cc23)cc1
2. CN1CCN(C(=O)c2ccc3c(c2)N(Cc2c(F)cccc2Cl)C(=O)c2ccccc2S3)CC1
3. Cc1ccc(S(=O)(=O)N(CC(=O)Nc2cccnc2)c2cc(Cl)ccc2C)cc1
4. CCN(CC)c1ccc2cc(C(=O)Nc3cccc(OC)c3)c(=O)oc2c1
5. O=S(=O)(NCCSc1nnnn1-c1ccccc1)c1ccc(F)cc1

1: 65; 2: 85; 3: 78; 4: 75; 5: 76

For every item below, please supply its survival.
1. CCC1CCCCN1CCCNC(=O)c1[nH]c2ccccc2c1Sc1ccc(Cl)cc1 (stereo not given)
2. CCN(CC)CCNC(=O)c1[nH]c2ccccc2c1Sc1ccc(Cl)cc1
3. CCN(CC)CCCNC(=O)C(=O)Nc1ccc2nc3n(c(=O)c2c1)CCCCC3
4. O=C(/C=C/c1ccco1)Nc1ccc(-c2cc3ccccc3oc2=O)cc1
5. Oc1ccc(-c2nc(-c3ccccc3)c(-c3ccc(Br)cc3)[nH]2)cc1

[-1, 45, 91, 50, -4]

###

Test system: DeltatarO mutant
testDetails: S. aureus survival, RN4220 and DeltatarO strains – OD600, teichoic acid synthesis inhibitors, primary screen (AID 463173)
condition: S. aureus RN4220 wild type/DeltatarO growth, OD600, 18 h, screened at 18.75 µg/mL (by protocol)
In all, about 52,000 compounds went through this assay and about 4,300 (8.3%) were called active. Cut-off read from the data, not from the text of the source: active = survival mostly below about 52% (no sharp cut-off); inactive = mostly above about 56%. The entries come from a sample that favours actives as a whole.
Parameter call: string, one of true = active, false = inactive

Recorded results for 5 compounds are shown here.
Cc1ccc(NC(=O)/C(C#N)=C/c2cc(C)n(-c3ccc(Br)cc3)c2C)cc1C; false
O=C(c1cn(CCOc2ccc(Cl)cc2)c2ccccc12)C1CCCCC1; true
O=C(Cn1cc(C(=O)C2CCCCC2)c2ccccc21)Nc1ccccc1Cl; false
Cc1c(-c2ccccc2)nc2c(Cl)cccc2c1C(=O)OCC(=O)c1ccc(F)cc1; false
O=C(c1cn(CCOc2ccccc2F)c2ccccc12)C1CCCCC1; true

What call does the record list for O=C(c1cccs1)c1cn(CCOc2ccccc2F)c2ccccc12 ?
false

Further, for Cc1nn(C(=O)c2ccc(Br)cc2)c(C)c1Sc1ccccc1 ?
true

Further, for Cc1nn(C(=O)c2ccccc2)c2c1C(=O)CC(C)(C)C2 ?
false

Further, for Cc1ccccc1OCCn1cc(C(=O)C2CCCCC2)c2ccccc21 ?
false

Further, for Cc1ccc(NC(=O)/C(C#N)=C\c2ccc(Cl)cc2Cl)cc1C ?
true

Further, for CCCn1c(N2CCN(C(=O)Nc3ccc(OC)cc3)CC2)nc2ccccc21 ?
false

Further, for Cc1ccc(Cl)cc1NC(=O)/C(C#N)=C\c1cn(Cc2ccc(F)cc2)c2ccccc12 ?
false

###

Tested on: DeltatarO mutant
testDetails: S. aureus survival, RN4220 and DeltatarO strains – OD600, teichoic acid synthesis inhibitors, primary screen (AID 463173)
condition: S. aureus RN4220 wild type/DeltatarO growth, OD600, 18 h, hits give low values, screened at 18.75 µg/mL (by protocol)
Among all 52,000 compounds or so, about 4,300 (8.3%) were called active. The full list was thinned out, with actives kept by preference.
measureName: survival (%)
One number for each entry, in %.

COc1ccc(OC)c(NC(=O)c2cc3c(n(-c4ccc(Cl)cc4)c2=O)CC(C)(C)CC3=O)c1; 69
CCOC(=O)c1ccc(NC(=O)c2cc3c(n(-c4ccc(C)cc4)c2=O)CC(C)(C)CC3=O)cc1; 153
CCOc1ccc(/C=C/c2nc3ccccc3n2S(=O)(=O)c2ccc(Br)cc2)cc1; 59
CCOc1ccc(NS(=O)(=O)c2ccc3c(c2)CCCN3C(=O)C2CCC2)cc1; 67

For CNC(=O)c1cc2c(n(-c3ccc(C)cc3)c1=O)CC(C)(C)CC2=O , what is its reported survival?
93

###

Test system: DeltatarO mutant
testDetails: S. aureus survival, RN4220 and DeltatarO strains – OD600, teichoic acid synthesis inhibitors, primary screen (AID 463173)
condition: S. aureus RN4220 wild type/DeltatarO growth, OD600, 18 h, hits give low values, screened at 18.75 µg/mL (by protocol)
The campaign covered roughly 52,000 compounds. About 4,300 (8.3%) were called active. What follows is part of a selection rich in actives, with near analogues and random picks from the rest.
Could you please report measured survival for the items listed next?
Give bare numbers, in %.

O=C(Nc1c(C(=O)N2CCN(c3ccccc3F)CC2)oc2ccccc12)c1ccco1; 69

For every item below, please supply its survival.
1. CC(C)Oc1ccc(CNC(=O)CCCn2c(=O)c3cccn3c3ccccc32)cc1
2. O=C(Nc1c(C(=O)N2CCN(c3ccc(F)cc3)CC2)oc2ccccc12)c1ccco1
3. CCOc1cc(C(=O)NCC(c2ccc(N(C)C)cc2)N2CCOCC2)cc(OCC)c1OCC (stereo not given)
4. O=C(Nc1c(C(=O)N2CCN(c3ccccc3)CC2)oc2ccccc12)c1ccco1
5. CCc1cccc(-n2c(=O)c3cccnc3n2CC(=O)Nc2ccc(OC)c(Cl)c2)c1
6. COc1cccc(CNC(=O)CCn2c(=O)c3cccn3c3ccc(F)cc32)c1OC
7. COc1cccc(CNC(=O)CCCn2c(=O)c3cccn3c3ccc(F)cc32)c1OC

1. 45
2. 74
3. 101
4. 37
5. 104
6. 59
7. 43

For every item below, please supply its survival.
1. COc1ccc(CNC(=O)CCc2nnc3n(C)c(=O)c4sccc4n23)cc1
2. COc1ccccc1N1CCN(C(=O)c2cc3c(=O)n(Cc4cccs4)ccc3nc2C)CC1

1: 180; 2: 74
